System: Panc1 cells
Type: cell-based, human
RECORDED_ENDPOINT: reduction in viability

SUBSTANCE: TWIST-2: siRNA targeting TWIST; sense ggugugcguccagccguugdTdT, antisense caacggcuggacgcacaccdTdT; SEQ ID No's 108-109 (sense GGUGUGCGUCCAGCCGUUGTT; antisense CAACGGCUGGACGCACACCTT; DNA at 20, 21, other sugars and backbone not given here)
RESULT: greater than 50%
--
SUBSTANCE: SNAI2-2: siRNA targeting SLUG (SNAI2); sense cuggucaagaagcauuucadTdT, antisense ugaaaugcuucuugaccagdTdT; SEQ ID No's 104-105 (sense CUGGUCAAGAAGCAUUUCATT; antisense UGAAAUGCUUCUUGACCAGTT; DNA at 20, 21, other sugars and backbone not given here)
RESULT: ~50%
--
SUBSTANCE: TCF3-1: siRNA targeting E12 (TCF3); sense cuccuggacuucagcaugadTdT, antisense ucaugcugaaguccaggagdTdT; SEQ ID No's 131-132 (sense CUCCUGGACUUCAGCAUGATT; antisense UCAUGCUGAAGUCCAGGAGTT; DNA at 20, 21, other sugars and backbone not given here)
RESULT: greater than 50%
